biological target: NLRP3 (Homo sapiens); test: Human whole blood IL-1β release assay; assay type: cell-based; conditions: human whole blood with 1 μg/ml LPS, compound 3 hours, nigericin 10 μM 1 hr, IL-1β by AlphaLisa
Sequence (Q96P20 whole entry): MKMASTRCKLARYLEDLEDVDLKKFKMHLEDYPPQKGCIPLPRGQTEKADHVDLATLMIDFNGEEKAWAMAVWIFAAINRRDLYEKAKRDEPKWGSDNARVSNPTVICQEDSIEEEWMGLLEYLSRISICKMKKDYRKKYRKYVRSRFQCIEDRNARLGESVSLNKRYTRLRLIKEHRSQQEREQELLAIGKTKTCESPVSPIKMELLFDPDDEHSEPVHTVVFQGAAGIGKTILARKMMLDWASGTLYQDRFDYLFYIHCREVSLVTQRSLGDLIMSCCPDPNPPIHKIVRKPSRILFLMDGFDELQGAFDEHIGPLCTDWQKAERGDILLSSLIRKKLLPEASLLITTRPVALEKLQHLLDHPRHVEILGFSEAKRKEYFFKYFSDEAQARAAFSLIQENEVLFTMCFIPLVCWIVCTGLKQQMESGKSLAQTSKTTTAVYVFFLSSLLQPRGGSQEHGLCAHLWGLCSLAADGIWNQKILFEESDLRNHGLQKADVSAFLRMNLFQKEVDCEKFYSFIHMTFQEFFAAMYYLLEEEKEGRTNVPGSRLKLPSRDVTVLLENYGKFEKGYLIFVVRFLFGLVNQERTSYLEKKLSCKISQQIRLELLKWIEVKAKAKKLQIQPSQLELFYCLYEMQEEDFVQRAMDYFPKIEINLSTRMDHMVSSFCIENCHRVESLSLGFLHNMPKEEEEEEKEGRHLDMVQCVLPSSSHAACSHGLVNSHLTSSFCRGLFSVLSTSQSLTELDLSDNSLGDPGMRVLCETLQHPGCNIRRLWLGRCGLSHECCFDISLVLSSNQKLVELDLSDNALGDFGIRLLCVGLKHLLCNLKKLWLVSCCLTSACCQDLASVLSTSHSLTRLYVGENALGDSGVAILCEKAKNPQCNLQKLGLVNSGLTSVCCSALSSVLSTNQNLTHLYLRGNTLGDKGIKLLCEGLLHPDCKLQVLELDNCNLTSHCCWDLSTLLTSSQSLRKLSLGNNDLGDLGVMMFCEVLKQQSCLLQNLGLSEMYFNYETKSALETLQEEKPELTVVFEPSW
Counter-ions that a name gives are not always drawn.
MEASUREMENT_LABEL: IC50 (nM)

Cc1cc(Cl)cc(O)c1-c1ccc2oc(N3Cc4cncnc4C3)nc2n1 [Example 13, formic acid salt] | 304

P. COc1ncc2c(n1)CCN(c1nc3nc(-c4c(C)cc(Cl)cc4O)ccc3o1)C2
Q. Cc1cc(C(F)(F)F)cc(O)c1-c1ccc2oc(N3Cc4ccc(=O)n(C)c4C3)nc2n1
R. Cc1cc(C(F)(F)F)cc(O)c1-c1ccc2oc(N3CCc4cc(=O)[nH]cc4C3)nc2n1
[ask] Arrange the 3 molecules by rising IC50, starting with the smallest. Response format: the labels, sorted as the prompt asks.
[reply] P, R, Q

----------
molecular target: NLRP3 (Homo sapiens); experiment: THP-1 cells pyroptosis assay; assay type: cell-based; design: Seed THP-1 cells (25,000 cells/well) containing 1.0 μg/ml LPS in 40 μl of RPMI medium; host or cells: THP-1 cells, LPS-primed, nigericin-stimulated; conditions: THP-1 cells with 1.0 μg/ml LPS, compound 3 hours, nigericin 5 μM 1 hr, resazurin readout
pIC50: −log10 of the molar value.
MEASUREMENT_LABEL: pIC50

Recorded results for 3 compounds are shown here.
Cc1cc(C(F)F)cc(O)c1-c1ccc2oc(N3CCc4ncncc4C3)nc2n1 [Example 26] | 7.33
Cc1cc(C(F)(F)F)cc(O)c1-c1ccc2oc(N3CCc4nc[nH]c(=O)c4C3)nc2n1 [Example 41] | 6.76
Cc1cc(Cl)cc(O)c1-c1ccc2oc(N3Cc4ccncc4C3)nc2n1 [Example 7] | 8.02

A. COc1ncc2c(n1)CCN(c1nc3nc(-c4c(C)cc(Cl)cc4O)ccc3o1)C2 [Example 32]
B. Cc1cc(C(F)(F)F)cc(O)c1-c1cnc2oc(N3Cc4cnc(O)cc4C3)nc2n1 [Example 43]
[ask] Field: lower pIC50 | Options: A / B Refer to your chosen item by its label in the answer.
[reply] A
(A: 7.60, B: 8.77)

----------
target: NLRP3 (Homo sapiens); assay: Human whole blood IL-1β release assay; format: cell-based; conditions: human whole blood with 1 μg/ml LPS, compound 3 hours, nigericin 10 μM 1 hr, IL-1β by AlphaLisa
MEASUREMENT_LABEL: IC50 (nM)

Recorded results for 5 compounds are shown here.
Cc1cc(C(F)(F)F)cc(O)c1-c1ccc2oc(N3Cc4cc(=O)n(C)cc4C3)nc2n1 | 301
Cc1cc(C#N)cc(O)c1-c1ccc2oc(N3Cc4c[nH]c(=O)cc4C3)nc2n1 | 117
OCc1cc(Cl)cc(O)c1-c1cnc2oc(N3Cc4ccncc4C3)nc2n1 | 326
COc1cc2c(cn1)CN(c1nc3nc(-c4c(C)cc(C(F)(F)F)cc4O)ccc3o1)C2 | 840
Cc1cc(C(F)(F)F)cc(O)c1-c1ccc2oc(N3Cc4c[nH]c(=O)cc4C3)nc2n1 | 108

I. Cc1cc(C(F)(F)F)cc(O)c1-c1ccc2oc(N3CCc4ncncc4C3)nc2n1
II. Cc1cc(Cl)cc(O)c1-c1ccc2oc(N3Cc4c[nH]c(=O)cc4C3)nc2n1
III. Cc1cc(C(F)(F)F)cc(O)c1-c1ccc2oc(N3Cc4cncnc4C3)nc2n1
IV. Cc1cc(Cl)cc(O)c1-c1cnc2oc(N3Cc4ccncc4C3)nc2n1
V. Cc1cc(C(F)(F)F)cc(O)c1-c1ccc2oc(N3Cc4ccc(=O)[nH]c4C3)nc2n1
[ask] Kindly order the items shown according to IC50, from the highest value down. Response format: the labels, sorted as the prompt asks.
[reply] III, V, I, II, IV
